Source: ChEMBL document CHEMBL5058577

system: U2OS; experiment: Multiplex assay against U2OS; type: toxicity, cell-based; details: human, 12 h, 10 µM, compound concentration 10 uM, replicate 2
Give measured Population Pyknosed Nuclei (%) for each item. Keep answers brief.
Write the number in % without appending the unit.

Check U2OS data and give Population Pyknosed Nuclei (%) for `S=C(NCCCc1c[nH]cn1)NCCCN(Cc1ccc(Cl)c(Cl)c1)c1ccc(Br)cn1` .
29

Check U2OS data and give Population Pyknosed Nuclei (%) for `Nc1nc(-c2ccco2)c2cnn(Cc3ccccc3F)c2n1` .
7

Check U2OS data and give Population Pyknosed Nuclei (%) for `COc1cc(Nc2ncc3c(n2)-c2ccc(Cl)cc2C(c2c(F)cccc2OC)=NC3)ccc1C(=O)O` .
5

Check U2OS data and give Population Pyknosed Nuclei (%) for `Cc1cc(-c2ccc3c(c2)CC[C@H]3N2CC3(CCN(C(=O)Cc4cn5cc(C)sc5n4)CC3)C2)ncn1` .
11

Check U2OS data and give Population Pyknosed Nuclei (%) for `COc1ccc2c(c1OCc1ccccc1)C[C@@H](C(=O)O)N(C(=O)C(c1ccccc1)c1ccccc1)C2` .
10

Check U2OS data and give Population Pyknosed Nuclei (%) for `COc1cc(C(=O)N2CC[C@@H](O)[C@@H](N)C2)cc2nc(-c3cc4ccccc4n3CC3CC3)n(C)c12.Cl` .
22

Check U2OS data and give Population Pyknosed Nuclei (%) for CCC(=O)OCC(=O)[C@@]1(OC(=O)CC)[C@@H](C)C[C@H]2[C@@H]3CCC4=CC(=O)C=C[C@]4(C)[C@@]3(Cl)[C@@H](O)C[C@@]21C [BECLOMETHASONE DIPROPIONATE] .
18

Check U2OS data and give Population Pyknosed Nuclei (%) for `O=c1ccc2ccc(OCCCCN3CCN(c4cccc5sccc45)CC3)cc2[nH]1` .
35

Check U2OS data and give Population Pyknosed Nuclei (%) for `Cc1c(Cc2ccc3ccccc3n2)c2cc(F)ccc2n1CC(=O)O` .
12

Check U2OS data and give Population Pyknosed Nuclei (%) for `CN1CCC(C(=O)c2cccc(NC(=O)c3c(F)cc(F)cc3F)n2)CC1` .
16

Check U2OS data and give Population Pyknosed Nuclei (%) for `CCc1nn2c(C)cc(C)nc2c1Cc1ccc(-c2nnc(C3CCNCC3)o2)cc1` .
14

Check U2OS data and give Population Pyknosed Nuclei (%) for CCn1c(-c2nc3cc(C(=O)N4CCCC(N)C4)ccc3n2C)cc2ccccc21.Cl (centres undefined) .
18

Check U2OS data and give Population Pyknosed Nuclei (%) for CN1CCN2c3ccccc3Cc3ccccc3C2C1.Cl (centres undefined) [MIANSERIN HYDROCHLORIDE] .
10

Check U2OS data and give Population Pyknosed Nuclei (%) for O=C(O)CCC/C=C\CC1C(O)CC(O)C1/C=C/C(O)COc1cccc(Cl)c1 (centres undefined) .
8

Check U2OS data and give Population Pyknosed Nuclei (%) for `Cc1sc2c(c1C)C(c1ccc(Cl)cc1)=N[C@H](CC(=O)OC(C)(C)C)c1nnc(C)n1-2` .
8

Check U2OS data and give Population Pyknosed Nuclei (%) for `CCCCC[C@H](O)/C=C/[C@H]1[C@H](O)CC(=O)[C@@H]1CCCCCCC(=O)O` .
8

Check U2OS data and give Population Pyknosed Nuclei (%) for `COCCn1c(C)c(C)s/c1=N\C(=O)C1C(C)(C)C1(C)C` .
11

Check U2OS data and give Population Pyknosed Nuclei (%) for `C=CCN1C[C@H](C(=O)N(CCCN(C)C)C(=O)NCC)C[C@@H]2c3cccc4[nH]cc(c34)C[C@H]21` .
12

Check U2OS data and give Population Pyknosed Nuclei (%) for `O=C(Nc1cc(-c2ccccc2)nn1-c1ccccc1F)c1ccc([N+](=O)[O-])cc1` .
13

Check U2OS data and give Population Pyknosed Nuclei (%) for `COc1cc2nc(N3CCN(C(=O)COc4c(OC)cccc4C(C)C)CC3)nc(N)c2cc1OC.Cl.Cl` .
32

Check U2OS data and give Population Pyknosed Nuclei (%) for `Nc1nc(CC(=O)Nc2ccc(CCNC[C@H](O)c3ccccc3)cc2)cs1` .
6

Check U2OS data and give Population Pyknosed Nuclei (%) for `C[C@@H]1CC(=O)Nc2cccc(-c3ccc4c(c3)c(-c3cnn(C)c3)nn4C)c2N1` .
4

Check U2OS data and give Population Pyknosed Nuclei (%) for CN1C[C@H](C(=O)N[C@]2(C)O[C@@]3(O)[C@@H]4CCCN4C(=O)[C@H](Cc4ccccc4)N3C2=O)C[C@@H]2c3cccc4[nH]cc(c34)C[C@H]21.CS(=O)(=O)O [DIHYDROERGOTAMINE MESYLATE] .
2

Check U2OS data and give Population Pyknosed Nuclei (%) for `CC(C)C[C@H](CO)Nc1nc(S[C@@H](C)c2ccccc2)nc2nc(N)sc12` .
10

Check U2OS data and give Population Pyknosed Nuclei (%) for Cl.Cl.OCCOCCN1CCN(C(c2ccccc2)c2ccc(Cl)cc2)CC1 (centres undefined) [HYDROXYZINE HYDROCHLORIDE] .
6

Check U2OS data and give Population Pyknosed Nuclei (%) for `Cc1cc(O)c(-c2ccc([C@@H](C)CN(C)C)cc2)c2c1[nH]c(=O)c1sccc12` .
22

Check U2OS data and give Population Pyknosed Nuclei (%) for `CSc1nc(NC2CCCC2)c([N+](=O)[O-])c(NC2CCCC2)n1` .
4

Check U2OS data and give Population Pyknosed Nuclei (%) for `CC(C)(C)c1ccc(CSc2cnn(C(C)(C)C)c(=O)c2Cl)cc1` .
11

Check U2OS data and give Population Pyknosed Nuclei (%) for `N[C@](CC1c2ccccc2Oc2ccccc21)(C(=O)O)[C@H]1C[C@@H]1C(=O)O` .
4

Check U2OS data and give Population Pyknosed Nuclei (%) for `COc1cc(OC2CCN(C(C)=O)CC2)ccc1C(=O)N1CCC(N2C(=O)OCc3ccccc32)CC1` .
9

Check U2OS data and give Population Pyknosed Nuclei (%) for `C[C@H](NC(=O)CNC(=O)c1cccc(Cl)c1)c1ccccc1` .
4

Check U2OS data and give Population Pyknosed Nuclei (%) for COCCCN1CCC(NC(=O)c2cc(Cl)c(N)c3c2OCC3)CC1 [PRUCALOPRIDE] .
12

Check U2OS data and give Population Pyknosed Nuclei (%) for `Cc1cc(NC(=O)NCCN2CCC(O)(Cc3ccccc3)CC2)c2ccccc2n1` .
11

Check U2OS data and give Population Pyknosed Nuclei (%) for Cc1ccc(OCC(O)C(C)NC(C)C)c2c1CCC2.Cl (centres undefined) .
7
